Field: normalised response. Provide a value for each of the compounds that follow.
# Test system: HCC1143
# assay remarks: normalised response (% of control), CellTiter-Glo; higher = more viable cells (100 = DMSO, 0 = benzethonium chloride kill control)
# measurement conditions: incubation time: 72 h
Numbers only, in %.

Known normalised response results, listed for orientation:
Return value of normalised response for input CN1CCC(COc2cnc(-c3cccc(Cn4nc(-c5cccc(C#N)c5)ccc4=O)c3)nc2)CC1 (1 nM) , no commentary.
102

Output normalised response of Nc1nc(Cl)nc2c1ncn2[C@H]1C[C@H](O)[C@@H](CO)O1 [Cladribine] (100 nM)
100

Please report normalised response for the following compound: C=CCNC1=C2C[C@@H](C)C[C@H](OC)[C@H](O)[C@@H](C)/C=C(\C)[C@H](OC(N)=O)[C@@H](OC)/C=C\C=C(/C)C(=O)NC(=CC1=O)C2=O [Tanespimycin] (1000 nM)
36

Record normalised response per entry; entries follow.
1. CN1CCC(COc2cnc(-c3cccc(Cn4nc(-c5cccc(C#N)c5)ccc4=O)c3)nc2)CC1 (100 nM)
2. CC[C@]1(O)C[C@@H]2CN(CCc3c([nH]c4ccccc34)[C@@](C(=O)OC)(c3cc4c(cc3OC)N(C)[C@H]3[C@@](O)(C(=O)OC)[C@H](OC(C)=O)[C@]5(CC)C=CCN6CC[C@]43[C@@H]65)C2)C1 [Vinblastine] (0.1 nM)
3. Cc1ccc(F)c(NC(=O)Nc2ccc(-c3cccc4[nH]nc(N)c34)cc2)c1 [Linifanib] (100 nM)
4. O=C(c1ccc(C(=O)N2CCC(N3CCCC3)CC2)c(Nc2ccccc2)c1)N1CCC(N2CCCC2)CC1 [UNC1215] (3 nM)
5. Nc1ccn([C@@H]2O[C@H](CO)[C@@H](O)[C@@H]2O)c(=O)n1 [Cytarabine] (10 nM)
6. CS(=O)(=O)c1ccc(C(=O)Nc2ccc(Cl)c(-c3ccccn3)c2)c(Cl)c1 [Vismodegib] (1000 nM)

93.3
99
105
87.5
99.3
89.2

Record normalised response for all entries; do not skip any.
1. CO[C@H]1C[C@@H]2CC[C@@H](C)[C@@](O)(O2)C(=O)C(=O)N2CCCC[C@H]2C(=O)O[C@H]([C@H](C)C[C@@H]2CC[C@@H](OC(=O)C(C)(CO)CO)[C@H](OC)C2)CC(=O)[C@H](C)/C=C(\C)[C@@H](O)[C@@H](OC)C(=O)[C@H](C)C[C@H](C)/C=C/C=C/C=C/1C [Temsirolimus] (0.1 nM)
2. COc1cc(Nc2ncc3c(n2)-c2ccc(Cl)cc2C(c2c(F)cccc2OC)=NC3)ccc1C(=O)O [Alisertib] (10 nM)
3. Cc1c2oc3c(C)ccc(C(=O)N[C@@H]4C(=O)N[C@H](C(C)C)C(=O)N5CCC[C@H]5C(=O)N(C)CC(=O)N(C)[C@@H](C(C)C)C(=O)O[C@@H]4C)c3nc-2c(C(=O)N[C@@H]2C(=O)N[C@H](C(C)C)C(=O)N3CCC[C@H]3C(=O)N(C)CC(=O)N(C)[C@@H](C(C)C)C(=O)O[C@@H]2C)c(N)c1=O [Dactinomycin] (1 nM)
4. CN(C)C/C=C/C(=O)Nc1cc2c(Nc3ccc(F)c(Cl)c3)ncnc2cc1O[C@H]1CCOC1 [Afatinib] (1 nM)
5. Cc1ccc(F)c(NC(=O)Nc2ccc(-c3cccc4[nH]nc(N)c34)cc2)c1 [Linifanib] (1 nM)
6. COc1cc(Nc2ncc3c(n2)-c2ccc(Cl)cc2C(c2c(F)cccc2OC)=NC3)ccc1C(=O)O [Alisertib] (1 nM)
7. OC[C@H]1O[C@@H](n2cnc3c2N=CNC[C@H]3O)C[C@@H]1O [Pentostatin] (10 nM)

1: 102; 2: 93.9; 3: 80.8; 4: 106; 5: 110; 6: 91.6; 7: 98.9

Please state, for each entry, its recorded normalised response.
1. CS(=O)(=O)c1ccc(C(=O)Nc2ccc(Cl)c(-c3ccccn3)c2)c(Cl)c1 [Vismodegib] (1 nM)
2. COc1cccc2cc(-c3nc([C@H]4CC[C@H](C(=O)O)CC4)n4ncnc(N)c34)[nH]c12 [OSI-027] (1 nM)
3. CN1CC[C@H](c2c(O)cc(O)c3c(=O)cc(-c4ccccc4Cl)oc23)[C@H](O)C1 [Alvocidib] (10 nM)

94.3
92.8
103

The reported measurements were obtained from the supplement of paper PMC4862054.
